- System: HCC-2998 colon
- protocol.summary: NCI-60 one-dose screen, 48 h (100 = growth as untreated, 0 = no growth, -100 = all killed)
- run.conditions: 10 µM unless noted
This is part of a sample that, as a whole, favours compounds with a hit. Of some 83,000 tested, about 20% had one in any assay.
attribute.measured: growth (%)
Write down the numeric answer in % and omit the unit.

Would you please look over these solved cases?
compound | growth (%)
c1ccc(-c2ccc3c(c2)C2(CCNCC2)CN3)cc1 | 103
CNCC[C@H](Oc1cccc2ccccc12)c1cccs1 | 79

Sample Nc1ccc(Br)cc1C(F)(F)F , system: HCC-2998 colon. Its growth is 114

Measured growth (HCC-2998 colon), entry COc1cc2ncnc(Nc3ccc(S(=O)(=O)Nc4nccs4)cc3)c2cc1OCCCN1CCCC1 : 112

Short answer on HCC-2998 colon for Cc1ccc2c(c1)=C/C(=C\c1cc(-c3ccccc3)[nH]c1O)C(=O)N=2 , growth: 56.6

Item: NS(=O)(=O)c1ccc(C(=O)NN2C(=O)c3ccccc3C2=O)cc1 | System: HCC-2998 colon | growth: 108

Bench note, HCC-2998 colon: entry O=C1/C(=C/c2c[nH]c(=O)[nH]c2=O)SC(=S)N1Cc1ccccc1 , its growth = 101

----------
- System: HCT-116 colon
- protocol.summary: NCI-60 one-dose screen, 48 h
- run.conditions: 10 µM unless noted
About 83,000 compounds went through this panel and 20% of them were active in at least one assay; those are over-represented in the sample as a whole. Calls of active or inactive are those of the source. How the source made its calls: active means growth percent below 10; inactive means the rest.
Hello, when you answer, please use one of the following outcomes: 1 for active, -1 for inactive

Some solved entries appear below for comparison.
chemical.structure | class
COc1ccc(C(=O)Nc2ncc(Cc3ccc(Cl)cc3)s2)cc1 | 1
COc1ccc(/C=C2\c3cc(OC)c(OC)c(OC)c3CC[C@@H]2O)cc1F | 1
COc1cc(C=Nc2oc(-c3ccccc3)c(-c3ccccc3)c2C#N)cc(CN2CCCC2)c1O | -1
COc1ccc2c(c1)oc1c(C)c3c(c(C)c12)C(=O)N(CCOS(C)(=O)=O)C3=O | -1
COc1ccc(-c2nc3c(c(-c4ccc(Cl)cc4)nn3-c3ccccc3)c(-c3ccccc3)c2C#N)cc1 | -1
COc1cc(/C=C/c2cc(/C=C/c3ccc(O)c(OC)c3)n(C(=O)Nc3ccc(Cl)cc3)n2)ccc1O | 1
O=C1C=C(SCCO)C(=O)c2ccccc21 | 1
COC(=O)[C@]1(C)CCC[C@]2(C)[C@H]3C[C@@H]4[C@H]5[C@@H]6CC/C(=N\OCC/C(N)=N/O)[C@H]5[C@@]3(CC[C@H]21)CC4(C(C)C)O6 | -1

As a next step, examine the molecule that follows.
Request: What did this assay record as the result for N#Cc1c(-c2ccc(Br)cc2)nc2c(N=Nc3ccc(S(N)(=O)=O)cc3)c(N)nn2c1N ?
Response: -1

----------
- Tested on: HT29 colon
- protocol.summary: NCI-60 one-dose screen, 48 h (100 = growth as untreated, 0 = no growth, -100 = all killed)
- run.conditions: 10 µM unless noted
This is part of a sample that, as a whole, favours compounds with a hit. Of some 83,000 tested, about 20% had one in any assay.
attribute.measured: growth (%)
Note: unit % is implicit; provide only the numeric part.

compound | growth / %
Cc1cc(O)c(=O)cc2c1C[C@H]1CC(C)(C)/C=C/C[C@]3(C)Oc4cc(=O)c(O)cc(C)c4C[C@H]3C[C@H](O)[C@@]1(C)O2 | 7.77
CC(O)CNC(Cc1ccccc1)c1ccc2c(c1)OCO2 (stereo unspecified) | 65.5

get_value(item= COc1cc2ncnc(Nc3ccc(S(=O)(=O)Nc4nccs4)cc3)c2cc1OCCCN1CCCC1 , readout=growth) returns 107

The compound CCCOC(=O)Nc1nc2ccc(SCC)cc2s1 showed growth equal to 31.3

The measured growth associated with CNC(=O)c1cc(Oc2ccc3c(c2)sc2nc(-c4cc(C(F)(F)F)cc(C(F)(F)F)c4)cn23)ccn1 reads 38.7

Lab note: Cc1ccc(S(=O)(=O)OCC#CCOS(=O)(=O)c2ccc(C)cc2)cc1 gave growth of 50.3

Measured growth of N#CC1=C(N)Oc2c(sc3c(F)cccc23)C1c1ccc([N+](=O)[O-])cc1 (stereo unspecified) : -13.6

Form: compound = COCCn1cc(-c2nc(-c3c[nH]c4ncccc34)cs2)c2ccccc21 ; growth = 50.2

Record O=C(CSc1nnnn1-c1ccccc1)Nc1ccc(Oc2ccccc2)cc1 . Reported growth: 108
